# experimental-target: T1, wheat germ cell extract in vitro translated HA-GLI1 (human, UniProt P08151 1-1106)
# T1 sequence (looked up): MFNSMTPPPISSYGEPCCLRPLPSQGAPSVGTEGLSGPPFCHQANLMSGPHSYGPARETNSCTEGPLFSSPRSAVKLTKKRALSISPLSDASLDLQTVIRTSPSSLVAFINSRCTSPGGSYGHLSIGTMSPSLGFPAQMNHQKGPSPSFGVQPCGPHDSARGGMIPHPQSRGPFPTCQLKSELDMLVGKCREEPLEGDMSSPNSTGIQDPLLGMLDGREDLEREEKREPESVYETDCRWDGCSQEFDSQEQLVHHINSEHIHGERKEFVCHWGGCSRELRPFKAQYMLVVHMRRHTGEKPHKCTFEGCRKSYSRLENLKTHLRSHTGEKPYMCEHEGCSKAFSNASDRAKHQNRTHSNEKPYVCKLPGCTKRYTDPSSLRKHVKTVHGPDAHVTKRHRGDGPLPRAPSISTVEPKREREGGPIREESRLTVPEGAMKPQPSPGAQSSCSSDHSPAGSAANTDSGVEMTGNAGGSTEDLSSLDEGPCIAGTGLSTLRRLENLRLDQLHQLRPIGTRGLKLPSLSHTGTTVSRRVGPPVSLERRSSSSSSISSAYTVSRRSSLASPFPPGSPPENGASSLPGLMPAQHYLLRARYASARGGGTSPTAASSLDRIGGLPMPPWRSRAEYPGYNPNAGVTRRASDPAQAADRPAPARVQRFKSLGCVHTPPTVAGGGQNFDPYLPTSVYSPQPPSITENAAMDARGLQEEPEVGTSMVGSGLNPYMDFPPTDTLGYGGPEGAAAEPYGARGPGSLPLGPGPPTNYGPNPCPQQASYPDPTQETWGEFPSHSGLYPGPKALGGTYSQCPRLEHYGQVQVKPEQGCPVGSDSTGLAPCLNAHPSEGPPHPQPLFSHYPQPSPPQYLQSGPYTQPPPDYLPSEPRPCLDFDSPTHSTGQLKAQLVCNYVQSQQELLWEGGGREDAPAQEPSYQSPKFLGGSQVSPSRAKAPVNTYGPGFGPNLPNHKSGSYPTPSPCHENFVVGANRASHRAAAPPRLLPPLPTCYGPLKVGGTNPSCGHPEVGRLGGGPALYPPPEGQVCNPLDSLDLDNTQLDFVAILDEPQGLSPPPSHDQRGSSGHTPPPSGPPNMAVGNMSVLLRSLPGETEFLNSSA
# experiment-description: co-IP
pKd: −log10 of the molar value. Ends that are not written are not given here. * marks the point of attachment. Biotin = O=C1N[C@H]2[C@H](CS[C@H]2CCCCC(=O)*)N1
endpoint: pKd

[[record]]
binder = "Biotin-LEDPSVLTKDKLKSELVANNVTLPAGEQRKDVYVQLYLQHLTAR (peptide, UniProt P42166 5-48, looked up) [biotin-LEM-like domain peptide (residues 5–48)]"
endpoint = "pKd"
recorded_value = 5.10

